Numbers sourced from patent US20260242735A1.

# tgt: human CD33 variant P48Y (human, UniProt P20138 18-364)
# Sequence (P20138 18-364 P48Y limits assumed): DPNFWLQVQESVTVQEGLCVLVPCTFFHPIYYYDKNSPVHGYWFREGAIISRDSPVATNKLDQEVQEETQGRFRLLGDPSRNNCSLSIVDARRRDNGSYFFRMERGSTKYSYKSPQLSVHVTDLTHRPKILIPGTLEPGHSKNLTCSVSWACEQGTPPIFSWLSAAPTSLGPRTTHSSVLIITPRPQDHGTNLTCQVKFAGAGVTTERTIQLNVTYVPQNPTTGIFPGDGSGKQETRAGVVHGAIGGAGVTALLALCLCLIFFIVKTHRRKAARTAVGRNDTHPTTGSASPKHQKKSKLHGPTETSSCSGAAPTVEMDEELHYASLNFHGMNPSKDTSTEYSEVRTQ
# procedureSummary: flow cytometry, IgG on cells expressing the mutant
readoutKind: Mean % WT Binding

Q: Assign Mean % WT Binding to the following record: Refmab #2 (antibody, human IgG1, V domains shown, Tested in IgG format; human IgG1 Fc silent (PG-LALA)) VH: QVQLVQSGAEVKKPGSSVKVSCKASGGTFSDYAISWVRQAPGQGLEWMGRIIPILGVADYAQKFQGRVTITADKSTRTAYMELSSLRSEDTAVYYCARNWADAFDIWGQGTMVTVSS VL: DIQLTQSPSSLSASVGDRVTITCRASQGISSVLAWYQQKPGKAPKLLIYDASSLESGVPSRFSGSGSGTDFTLTISSLQPEDFATYYCQQFDSSITFGQGTKLEIK
A: 21.6 % of WT

Q: Report Mean % WT Binding for Refmab #4 (antibody, human IgG1, V domains shown, Tested in IgG format; human IgG1 Fc silent (PG-LALA)) VH: QVQLVQSGAEVKKPGESVKVSCKASGYTFTNYGMNWVKQAPGQGLEWMGWINTYTGEPTYADKFQGRVTMTTDTSTSTAYMEIRNLGGDDTAVYYCARWSWSDGYYVYFDYWGQGTSVTVSS VL: DIVMTQSPDSLTVSLGERTTINCKSSQSVLDSSTNKNSLAWYQQKPGQPPKLLLSWASTRESGIPDRFSGSGSGTDFTLTIDSPQPEDSATYYCQQSAHFPITFGQGTRLEIK
A: 0.6 % of WT

Q: Given the binder Refmab #3 (antibody, human IgG1, V domains shown, Tested in IgG format; human IgG1 Fc silent (PG-LALA)) VH: QVQLVQSGAEVKKPGSSVKVSCKASGYTFTDYNMHWVRQAPGQGLEWIGYIYPYNGGTGYNQKFKSKATITADESTNTAYMELSSLRSEDTAVYYCARGRPAMDYWGQGTLVTVSS VL: DIQMTQSPSSLSASVGDRVTITCRASESVDNYGISFMNWFQQKPGKAPKLLIYAASNQGSGVPSRFSGSGSGTDFTLTISSLQPDDFATYYCQQSKEVPWTFGQGTKVEIK , write its reported Mean % WT Binding.
A: 90.3 % of WT

Q: # return recorded Mean % WT Binding for entry Refmab #1 (antibody, human IgG1, V domains shown, Tested in IgG format; human IgG1 (Absolute Antibody hP67.6, Cat. No. Ab00283-10.0); also called hP67.6) VH: EVQLVQSGAEVKKPGSSVKVSCKASGYTITDSNIHWVRQAPGQSLEWIGYIYPYNGGTDYNQKFKNRATLTVDNPTNTAYMELSSLRSEDTAFYYCVNGNPWLAYWGQGTLVTVSS VL: DIQLTQSPSTLSASVGDRVTITCRASESLDNYGIRFLTWFQQKPGKAPKLLMYAASNQGSGVPSRFSGSGSGTEFTLTISSLQPDDFATYYCQQTKEVPWSFGQGTKVEVK
A: 99.5 % of WT
